B1: OR4K15 (parent)
chain: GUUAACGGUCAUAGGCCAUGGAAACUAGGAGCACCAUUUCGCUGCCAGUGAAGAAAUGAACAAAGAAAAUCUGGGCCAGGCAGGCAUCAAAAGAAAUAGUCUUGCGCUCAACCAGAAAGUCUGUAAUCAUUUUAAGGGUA

# Variants of: B1
# Procedure text: self-cleavage, relative activity (ratio to wild type); higher = more cleavage; in vitro, sequencing; the parent is a self-cleaving ribozyme
Quantity kind: self-cleavage
Please give the numeric answer without any surrounding text.

GUUAACGGUCAUAGGCCAUGGAAACUAGGAGCACCAUCUCGCUGCCAGUGAAGAAAUGAACAAAGAUAAUCUGGGCCAGGCAGGCAUCAAAAGAAAUAGUCUUGCGCUCAACCAGAAAGUCUGUAAUCAUUUUAAGGGUA	2.33

I would be grateful if you could share the reported self-cleavage for GUUAACUGUCAUAGGCCAUGGAAACUAGGAGCACCAUUUCGCUGCCAGUGAAGAAAUGAACAAAGAAAAUCUGGGCCAGGCAGGCAUCAAAAGAAAUAGUCUUACGCUCAACCAGAAAGUCUGUAAUCAUUUUAAGGGUA . 0.05
